Target: T1, monkey LAG-3 on cells (HEK293-cLAG-3 stable cell line) (monkey, UniProt P18627 24-525 (human entry))
T1 construct: Full-length monkey (Chinese monkey) LAG-3 gene expressed on HEK293 cells
T1 chain: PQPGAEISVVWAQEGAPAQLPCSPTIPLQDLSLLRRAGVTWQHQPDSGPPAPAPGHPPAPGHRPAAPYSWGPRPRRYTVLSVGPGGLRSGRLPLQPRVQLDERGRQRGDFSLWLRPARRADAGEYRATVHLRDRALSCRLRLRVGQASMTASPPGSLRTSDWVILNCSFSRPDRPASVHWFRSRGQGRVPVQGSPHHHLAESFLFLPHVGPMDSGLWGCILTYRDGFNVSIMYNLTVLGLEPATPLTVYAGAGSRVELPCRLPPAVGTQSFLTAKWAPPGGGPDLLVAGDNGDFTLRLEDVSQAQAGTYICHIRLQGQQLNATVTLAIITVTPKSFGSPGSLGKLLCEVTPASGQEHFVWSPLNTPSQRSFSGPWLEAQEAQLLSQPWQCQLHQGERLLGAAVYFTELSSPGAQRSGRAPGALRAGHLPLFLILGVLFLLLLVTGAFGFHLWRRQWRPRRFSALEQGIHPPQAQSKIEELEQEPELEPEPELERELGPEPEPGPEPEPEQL
Test: FACS, HEK293-cLAG-3, antibody 0.320 nM
Experimental: The pIRES plasmid with the monkey-derived full-length gene was transfected into the HEK293 cell line to construct a HEK293 stable cell line containing monkey LAG-3 (herein referred to as HEK293-cLAG-3 stable cell line). […] After counted, the cells were diluted with HBSS to 1-2×10⁶ cells per ml, added with 1% goat serum blocking solution, incubated on ice for 20-30 minutes, and then washed with HBSS for 2 times by centrifugation. […]
parameter: Mean fluorescence intensity
Just the number.

Look over these answered cases.
binder	Mean fluorescence intensity
405B8H3 mouse-human chimeric antibody (antibody, V domains shown, also called mAb103-405B8H3) VH: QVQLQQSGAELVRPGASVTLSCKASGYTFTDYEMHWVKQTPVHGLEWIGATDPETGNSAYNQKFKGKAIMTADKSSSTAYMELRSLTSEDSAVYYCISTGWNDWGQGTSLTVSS VL: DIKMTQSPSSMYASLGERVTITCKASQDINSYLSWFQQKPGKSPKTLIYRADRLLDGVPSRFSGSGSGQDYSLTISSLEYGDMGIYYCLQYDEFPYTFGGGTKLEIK	10.3
409D4E10 mouse-human chimeric antibody (antibody, V domains shown, also called mAb112-409D4E10) VH: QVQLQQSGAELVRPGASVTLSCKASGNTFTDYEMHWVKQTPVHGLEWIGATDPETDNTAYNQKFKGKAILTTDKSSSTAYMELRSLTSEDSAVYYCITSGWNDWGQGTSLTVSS VL: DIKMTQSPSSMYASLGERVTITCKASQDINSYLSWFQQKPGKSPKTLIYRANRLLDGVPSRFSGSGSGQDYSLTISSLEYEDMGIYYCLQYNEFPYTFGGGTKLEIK	8.96

Attention now turns to another entry.
Entry 105F1E10 mouse-human chimeric antibody (antibody, V domains shown, also called mAb009-105F1E10) VH: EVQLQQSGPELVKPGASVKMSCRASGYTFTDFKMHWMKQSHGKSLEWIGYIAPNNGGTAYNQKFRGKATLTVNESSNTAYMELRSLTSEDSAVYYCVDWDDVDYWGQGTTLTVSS VL: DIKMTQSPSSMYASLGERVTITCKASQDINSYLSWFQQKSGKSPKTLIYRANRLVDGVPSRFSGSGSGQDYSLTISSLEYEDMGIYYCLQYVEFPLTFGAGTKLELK : reported Mean fluorescence intensity = ?
5.72
